assay text: Plasma pharmacokinetics of betahistine and 2-PAA after oral dosing in UVN cats (LC-MS/MS, non-compartmental analysis)
Type: in vivo, cat
measurement conditions: male, plasma, po, PK/PD table, DAY 2, BH 0.2 mg/kg + Selegiline 1 mg/kg; read-out: Cmax (betahistine)

compound smiles	Cmax, ng/mL
CNCCc1ccccn1	23.8

* * *

assay text: Plasma pharmacokinetics of betahistine and 2-PAA after oral dosing in UVN cats (LC-MS/MS, non-compartmental analysis)
Type: in vivo, cat
measurement conditions: male, plasma, po, 0.2 mg/kg, PK/PD table, DAY 2, BH 0.2 mg/kg; read-out: Cmax (betahistine)
metric: Cmax (ng/mL)

compound smiles	unit label	result value
CNCCc1ccccn1	ng/mL	4.11

* * *

assay text: Plasma pharmacokinetics of betahistine and 2-PAA after oral dosing in UVN cats (LC-MS/MS, non-compartmental analysis)
Type: in vivo, cat
measurement conditions: male, plasma, po, 2 mg/kg, UVN cats, oral betahistine 2 mg/kg alone, day 21; read-out: Betahistine Cmax
Description: The experiments were performed on nine adult male UVN cats randomly allocated into three groups of cats. […] Pharmacokinetic parameters of betahistine and its major metabolite 2-PAA were calculated by applying non-compartmental analysis. […] Cmax and tmax were derived directly from the plasma concentration-time curves. […] Calculation of the elimination half-life (t1/2) was evaluated as ln 2/kel, with kel as the slope of the terminal phase of the plasma concentration-time curve.
metric: Cmax (ng/mL)

compound smiles	metric	unit label	result value
CNCCc1ccccn1	Cmax	ng/mL	38.9

* * *

assay text: Plasma pharmacokinetics of betahistine and 2-PAA after oral dosing in UVN cats (LC-MS/MS, non-compartmental analysis)
Assay type: in vivo, cat
measurement conditions: male, plasma, po, 2 mg/kg, UVN cats, oral betahistine 2 mg/kg alone, day 1; read-out: Betahistine AUC

compound smiles	AUC
CNCCc1ccccn1	19.7 ng·h/mL

* * *

assay text: Plasma pharmacokinetics of betahistine and 2-PAA after oral dosing in UVN cats (LC-MS/MS, non-compartmental analysis)
Format: in vivo, cat
measurement conditions: male, plasma, po, UVN cats, oral betahistine 0.2 mg/kg plus selegiline 1 mg/kg, day 1

compound smiles	unit label	Tmax
CNCCc1ccccn1	min	15

* * *

assay text: Plasma pharmacokinetics of betahistine and 2-PAA after oral dosing in UVN cats (LC-MS/MS, non-compartmental analysis)
Type: in vivo, cat
measurement conditions: male, plasma, po, 0.2 mg/kg, UVN cats, oral betahistine 0.2 mg/kg alone, day 1; read-out: Betahistine t1/2 (converted)

compound smiles	unit label	half-life
CNCCc1ccccn1	h	1.9

* * *

assay text: Plasma pharmacokinetics of betahistine and 2-PAA after oral dosing in UVN cats (LC-MS/MS, non-compartmental analysis)
Type: in vivo, cat
measurement conditions: male, plasma, po, 0.2 mg/kg, UVN cats, oral betahistine 0.2 mg/kg alone, day 21
metric: Tmax (h)

compound	result value
CNCCc1ccccn1 [Betahistine, betahistine]	2

* * *

assay text: Plasma pharmacokinetics of betahistine and 2-PAA after oral dosing in UVN cats (LC-MS/MS, non-compartmental analysis)
Type: in vivo, cat
measurement conditions: male, plasma, po, UVN cats, oral betahistine 0.2 mg/kg plus selegiline 1 mg/kg, day 21; read-out: Betahistine t1/2 (converted)
Method: The experiments were performed on nine adult male UVN cats randomly allocated into three groups of cats. […] Pharmacokinetic parameters of betahistine and its major metabolite 2-PAA were calculated by applying non-compartmental analysis. […] Cmax and tmax were derived directly from the plasma concentration-time curves. […] Calculation of the elimination half-life (t1/2) was evaluated as ln 2/kel, with kel as the slope of the terminal phase of the plasma concentration-time curve.

compound	half-life, h
CNCCc1ccccn1 [Betahistine, betahistine]	1.9

Origin of the recorded values: paper PMC6005348
